Every entry's value here was drawn from patent US12473250B2.

Tested on: colistin resistant MCR (+) E. Coli strains
assay_text: Synergy study: colistin MIC in the presence of compound
Assay type: cell-based
condition_label: strain 6103645107, MCR(+); compound at 10 μg (Table 2a: 10 ug/ml)
recorded_metric: Colistin MIC in the presence of the compound (µg/mL)
A number alone suffices; assume µg/mL.

Sample records with Colistin MIC in the presence of the compound:
| compound | units_label | readout_value |
| --- | --- | --- |
| CC1(C)C=Cc2c(ccc3c2OCC(c2ccc(OCCCC[n+]4ccccc4)cc2OCCCC[n+]2ccccc2)C3)O1 (centres unmarked) [LC370] | µg/mL | 0.195 |
| CCN(CC)CCCCOc1ccc(/C=C/C(=O)c2ccc(OCCCCN(CC)CC)cc2O)cc1 [LC107] | µg/mL | 3.125 |
| CN(C)CCCN(CCCCOc1ccc(C2COc3c(ccc4c3C=CC(C)(C)O4)C2)c(OCCCCN(CCCN(C)C)CCCN(C)C)c1)CCCN(C)C (centres unmarked) [LC095] | µg/mL | 3.125 |

Query compound follows.
Request: Look up Colistin MIC in the presence of the compound for this compound: Cc1cc(OCCCCC[N+](C)(C)C)cc(OCCCCC[N+](C)(C)C)c1 [LC310]
Result: 6.25
